Test system: EPHB4;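 also: KINOMEscan scanMAX binding as percent activity remaining versus control; lower means stronger binding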
Details: Compound Concentration (nM):1000
Exercise: for every item that follows, state its recorded Percent Control.
Numbers only, in %.

These solved cases illustrate the format of a correct answer.
{"Molecule": "CCn1c(-c2nonc2N)nc2c(C#CC(C)(C)O)nc(OCCNC)cc21.Cl", "Unit descriptor": "%", "Observed value": 100}
{"Molecule": "Cl.c1ccc(Cc2nc3ccc(Nc4ncnc5ccccc45)cc3[nH]2)cc1 [GR269666A]", "Unit descriptor": "%", "Observed value": 100}
{"Molecule": "C/C(Nc1ccc(S(N)(=O)=O)cc1)=C1/C(=O)Nc2ccccc21 [GW335962X]", "Unit descriptor": "%", "Observed value": 86}
{"Molecule": "CCS(=O)(=O)c1ccc(OC)c(Nc2ncc(-c3cccc(OC)c3)o2)c1 [GW580509X]", "Unit descriptor": "%", "Observed value": 100}

In the following, a different molecule is considered.
Need Percent Control of COc1cc2ncnc(Nc3ccc4c(cnn4Cc4ccccc4)c3)c2cc1OC.Cl [GW282449A] , thanks.
100
